Just for reference, patent US20060269997A1 is where these values come from.

The entries below are paired with their reported Endothelial Cell Proliferation Activity (HUVEC, 3H-thymidine), concentration.
Target: KDR on human umbilical vein endothelial cells (HUVEC) (human, UniProt P35968 20-1356)
Sequence (P35968 20-1356): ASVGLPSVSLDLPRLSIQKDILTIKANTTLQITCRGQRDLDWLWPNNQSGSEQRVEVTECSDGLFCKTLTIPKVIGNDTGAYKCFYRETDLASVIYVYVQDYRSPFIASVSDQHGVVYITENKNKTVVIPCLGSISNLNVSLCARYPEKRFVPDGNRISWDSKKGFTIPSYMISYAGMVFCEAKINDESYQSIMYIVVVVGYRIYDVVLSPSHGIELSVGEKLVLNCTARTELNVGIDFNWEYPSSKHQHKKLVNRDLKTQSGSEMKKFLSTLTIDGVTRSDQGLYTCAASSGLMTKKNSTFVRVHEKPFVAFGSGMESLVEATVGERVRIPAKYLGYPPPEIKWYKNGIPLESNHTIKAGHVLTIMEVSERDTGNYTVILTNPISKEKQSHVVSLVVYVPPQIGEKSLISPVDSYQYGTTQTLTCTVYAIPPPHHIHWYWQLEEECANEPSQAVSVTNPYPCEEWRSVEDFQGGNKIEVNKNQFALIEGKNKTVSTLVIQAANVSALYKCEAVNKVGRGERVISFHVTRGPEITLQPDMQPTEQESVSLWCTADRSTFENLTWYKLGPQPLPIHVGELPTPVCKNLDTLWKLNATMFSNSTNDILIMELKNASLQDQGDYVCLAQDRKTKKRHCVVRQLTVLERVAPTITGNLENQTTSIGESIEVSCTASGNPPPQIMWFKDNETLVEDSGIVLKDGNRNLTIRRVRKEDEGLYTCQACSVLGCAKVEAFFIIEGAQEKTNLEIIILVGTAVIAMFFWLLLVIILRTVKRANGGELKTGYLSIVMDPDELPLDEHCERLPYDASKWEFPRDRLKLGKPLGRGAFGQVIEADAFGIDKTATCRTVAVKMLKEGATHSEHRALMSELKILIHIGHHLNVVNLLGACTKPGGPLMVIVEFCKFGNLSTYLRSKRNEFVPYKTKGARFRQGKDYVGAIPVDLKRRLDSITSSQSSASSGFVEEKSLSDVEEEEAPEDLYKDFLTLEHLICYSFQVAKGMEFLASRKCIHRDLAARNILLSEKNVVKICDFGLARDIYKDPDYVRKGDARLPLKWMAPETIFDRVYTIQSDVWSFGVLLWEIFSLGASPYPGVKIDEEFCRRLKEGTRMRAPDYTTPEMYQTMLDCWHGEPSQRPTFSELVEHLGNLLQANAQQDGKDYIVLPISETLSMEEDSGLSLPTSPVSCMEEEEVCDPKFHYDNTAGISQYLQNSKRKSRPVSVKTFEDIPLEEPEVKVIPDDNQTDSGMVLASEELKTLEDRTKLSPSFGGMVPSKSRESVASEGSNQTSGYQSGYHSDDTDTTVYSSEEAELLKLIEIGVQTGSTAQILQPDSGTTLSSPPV
Test: cell-based or functional assay
Give the value, in units of nM, as a plain number.

binder: LK-VRB-2f (ligand, human, UniProt P15692-4 27-191, looked up, also called KDR-selective VEGF variant; KDR-sel) APMAEGGGQNHHEVVKFMDVYQRSYCHPIETLVDIFQEYPDEIEYIFKPSCVPLMRCGGCCNSEMRECVPTEESNITMQIMRIKPHQGQHIGEMSFLQHNKCECRPKKDRARQENPCGPCSERRKHLFVQDPQTCKCSCKNTDSRCKARQLELNERTCRCDKPRR
observedResult: 0.05
--
binder: LK-VRB-7s* (ligand, human, UniProt P15692-4 27-135, looked up) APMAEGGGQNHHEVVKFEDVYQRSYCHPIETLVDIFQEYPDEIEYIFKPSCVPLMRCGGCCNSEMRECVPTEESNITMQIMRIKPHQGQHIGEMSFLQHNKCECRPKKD
observedResult: 0.5
--
binder: LK-VRB-8s* (ligand) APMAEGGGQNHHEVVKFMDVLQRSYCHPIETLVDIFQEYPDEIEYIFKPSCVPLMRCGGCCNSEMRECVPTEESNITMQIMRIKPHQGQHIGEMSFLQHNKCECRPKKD
observedResult: 0.5
--
binder: LK-VRB-2s* (ligand, human, UniProt P15692-4 27-135, looked up, also called KDR selective variant) APMAEGGGQNHHEVVKFMDVYQRSYCHPIETLVDIFQEYPDEIEYIFKPSCVPLMRCGGCCNSEMRECVPTEESNITMQIMRIKPHQGQHIGEMSFLQHNKCECRPKKD
observedResult: 0.05
--
binder: native VEGF (8-109) (ligand, human, UniProt P15692 214-315, looked up, biotinylated where used as tracer) GQNHHEVVKFMDVYQRSYCHPIETLVDIFQEYPDEIEYIFKPSCVPLMRCGGCCNDEGLECVPTEESNITMQIMRIKPHQGQHIGEMSFLQHNKCECRPKKD
observedResult: 0.5

For the binder LK-VRB-1s* (ligand, human, UniProt P15692-4 27-135, looked up) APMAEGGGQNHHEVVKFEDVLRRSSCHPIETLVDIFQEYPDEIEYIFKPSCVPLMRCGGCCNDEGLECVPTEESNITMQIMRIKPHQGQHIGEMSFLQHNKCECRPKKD , what Endothelial Cell Proliferation Activity (HUVEC, 3H-thymidine), concentration is on record?
0.1
